target: T1, ANTIBODY EXPRESSION CONTROL; assay: SPR Biacore, expression control
T1 construct: also called mouse anti-canine antibody (capture reagent of the expression control ELISA)
MEASURED_QUANTITY: kon (M⁻¹ s⁻¹)
// note: answer is a bare numeric in M⁻¹ s⁻¹

BINDER	DISPLAY_UNIT	RESULT_VALUE
Mu_02D09_VH (SEQ ID NO: 31)_Y50A (antibody, V domains shown) VH: EVQLVESGGGLVKPGGSLTLSCAASGFTFSDYGMHWLRQAPEKGLEWVAAISSGSRAVFFADTVKGRFTISRDNAKNTLFLQMTSLRSDDTAMYYCARDRYDGRGFAYWGQGTLVTVSA VL: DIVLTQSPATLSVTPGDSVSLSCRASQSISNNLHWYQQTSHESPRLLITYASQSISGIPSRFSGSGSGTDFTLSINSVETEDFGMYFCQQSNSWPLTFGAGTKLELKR	M⁻¹ s⁻¹	142000

Measured kon, Mu_09E09_VL (SEQ ID NO: 37)_W96A (antibody, V domains shown) VH: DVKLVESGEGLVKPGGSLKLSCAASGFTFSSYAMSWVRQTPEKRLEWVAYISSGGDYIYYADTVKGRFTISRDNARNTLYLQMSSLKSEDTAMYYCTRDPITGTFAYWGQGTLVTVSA VL: DLQMTQTTSSLSASLGDRVTISCRASQDINNYLNWYQQKPDGTVKLLIYYTSTLHSGVPSRFSGSGSGTDYSLTISNLEQEDIATYFCQQGNTLPATFGGGTKLEIKR : 283000
